molecular target: Procathepsin L (Homo sapiens, UniProt P07711)
Sequence (P07711 whole entry): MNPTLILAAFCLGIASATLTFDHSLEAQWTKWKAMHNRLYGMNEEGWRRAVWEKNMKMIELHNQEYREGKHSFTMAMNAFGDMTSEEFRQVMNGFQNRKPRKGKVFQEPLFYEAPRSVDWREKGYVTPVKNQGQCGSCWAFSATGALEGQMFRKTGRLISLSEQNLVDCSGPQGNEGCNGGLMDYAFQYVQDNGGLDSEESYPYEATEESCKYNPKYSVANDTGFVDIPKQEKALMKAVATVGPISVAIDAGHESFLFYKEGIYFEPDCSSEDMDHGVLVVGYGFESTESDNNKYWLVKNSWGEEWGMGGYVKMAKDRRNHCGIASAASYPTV
pKi: −log10 of the molar value.

[
  {
    "compound": "CCN(CC)c1ccc(/C=C/c2ccccc2C(=O)NC(Cc2ccccc2)C(=O)C(N)=O)cc1 (stereo unspecified)",
    "pKi": 6.86
  }
]

====

biological target: Phospholipase A2, membrane associated (Homo sapiens, UniProt P14555); experiment: Inhibition of human group IIA phospholipase A2 incubated for 30 mins by automatic plate reader analysis
Sequence (P14555 whole entry): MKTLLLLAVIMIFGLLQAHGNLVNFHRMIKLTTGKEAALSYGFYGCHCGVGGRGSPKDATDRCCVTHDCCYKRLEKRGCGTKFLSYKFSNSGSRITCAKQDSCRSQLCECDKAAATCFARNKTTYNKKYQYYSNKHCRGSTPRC
pIC50: −log10 of the molar value.

[
  {
    "molecule": "CCc1c(CC(N)=O)c2c(OCC(=O)O)cccn2c1Cc1cccc2ccccc12",
    "censor_symbol": "=",
    "pIC50": 7.52
  },
  {
    "molecule": "Cc1c(C(=O)C(N)=O)c2c(OCn3cnnn3)cccn2c1Cc1ccccc1-c1ccccc1",
    "censor_symbol": "=",
    "pIC50": 8.15
  },
  {
    "molecule": "CCc1c(C(=O)C(N)=O)c2c(OCC(O)CC)cccn2c1Cc1cccc(Cl)c1 (centres undefined)",
    "censor_symbol": "=",
    "pIC50": 4.72
  },
  {
    "molecule": "CCc1c(C(=O)C(=O)NC)c2c(OCC(=O)O)cccn2c1Cc1ccccc1",
    "censor_symbol": "<",
    "pIC50": 4.30
  }
]

====

target: Translocator protein (Rattus norvegicus) (UniProt P16257); assay: Activation of TSPO in rat C6 glioma cells assessed as increase in pregnenolone incubated for 2 hrs by radioimmuno assay; assay type: cell-based; set-up: concentration or dose not given beside the values; conditions: filed as activator
Sequence (P16257 whole entry, looked up): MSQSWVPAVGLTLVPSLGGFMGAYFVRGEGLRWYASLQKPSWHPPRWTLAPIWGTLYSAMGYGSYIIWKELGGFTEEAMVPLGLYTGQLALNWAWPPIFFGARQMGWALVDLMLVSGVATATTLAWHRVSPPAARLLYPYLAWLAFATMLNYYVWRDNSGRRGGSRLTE
reported_metric: Activity (%)

[
  {
    "compound": "CCCCCCN(CCCCCC)C(=O)C(=O)c1c(-c2ccc(Cl)cc2)[nH]c2ccc(Cl)cc12",
    "reported_result": 166
  },
  {
    "compound": "CCCN(CCC)C(=O)C(=O)c1c(-c2ccccc2)[nH]c2ccc(C)cc12",
    "reported_result": 148
  },
  {
    "compound": "CCCCN(CCCC)C(=O)C(=O)c1c(-c2ccc(Cl)cc2)[nH]c2ccc(Cl)cc12",
    "reported_result": 147
  },
  {
    "compound": "CCC(C)N(C)C(=O)c1cc2ccccc2c(-c2ccccc2Cl)n1 (stereo not given)",
    "reported_result": 48
  },
  {
    "compound": "CN1C(=O)CN=C(c2ccc(Cl)cc2)c2cc(Cl)ccc21",
    "reported_result": 41
  }
]

====

target: Translocator protein (Rattus norvegicus, UniProt P16257)
reported_metric: Ki (nM)

[
  {
    "smiles_record": "CCCN(CCC)C(=O)C(=O)c1c(-c2ccccc2)[nH]c2ccc(C)cc12",
    "reported_result": 5.5
  }
]

====

molecular target: Phospholipase A2, membrane associated (Homo sapiens, UniProt P14555); assay: Inhibition of human group IIA phospholipase A2 preincubated with compound for 10 mins followed by enzyme addition and measured after 30 mins by PC/DOC assay
reported_metric: IC50 (nM)

[
  {
    "smiles_record": "CCc1c(CC(N)=O)c2c(OCC(=O)O)cccn2c1Cc1cccc2ccccc12",
    "target_or_system": "Phospholipase A2, membrane associated (Homo sapiens, UniProt P14555)",
    "unit_abbrev": "nM",
    "reported_result": 5
  },
  {
    "smiles_record": "Cc1c(C(=O)C(N)=O)c2c(OCn3cnnn3)cccn2c1Cc1ccccc1-c1ccccc1",
    "target_or_system": "Phospholipase A2, membrane associated (Homo sapiens, UniProt P14555)",
    "unit_abbrev": "nM",
    "reported_result": 7
  },
  {
    "smiles_record": "Cc1c(C(=O)C(N)=O)c2c(OCC(=O)O)cccn2c1Cc1ccccc1-c1ccccc1",
    "target_or_system": "Phospholipase A2, membrane associated (Homo sapiens, UniProt P14555)",
    "unit_abbrev": "nM",
    "reported_result": 1.4
  }
]
